Biological target: T1, His-tagged human TFR1 (transferrin receptor 1) protein (human, UniProt P02786 89-760)
T1 construct: Bought protein; The order of the tag and the receptor part is not known; also called hTFR1-His; ACROBiosystems Cat #: CD1-H5243; not shown: His tag
T1 sequence (P02786 89-760 limits assumed): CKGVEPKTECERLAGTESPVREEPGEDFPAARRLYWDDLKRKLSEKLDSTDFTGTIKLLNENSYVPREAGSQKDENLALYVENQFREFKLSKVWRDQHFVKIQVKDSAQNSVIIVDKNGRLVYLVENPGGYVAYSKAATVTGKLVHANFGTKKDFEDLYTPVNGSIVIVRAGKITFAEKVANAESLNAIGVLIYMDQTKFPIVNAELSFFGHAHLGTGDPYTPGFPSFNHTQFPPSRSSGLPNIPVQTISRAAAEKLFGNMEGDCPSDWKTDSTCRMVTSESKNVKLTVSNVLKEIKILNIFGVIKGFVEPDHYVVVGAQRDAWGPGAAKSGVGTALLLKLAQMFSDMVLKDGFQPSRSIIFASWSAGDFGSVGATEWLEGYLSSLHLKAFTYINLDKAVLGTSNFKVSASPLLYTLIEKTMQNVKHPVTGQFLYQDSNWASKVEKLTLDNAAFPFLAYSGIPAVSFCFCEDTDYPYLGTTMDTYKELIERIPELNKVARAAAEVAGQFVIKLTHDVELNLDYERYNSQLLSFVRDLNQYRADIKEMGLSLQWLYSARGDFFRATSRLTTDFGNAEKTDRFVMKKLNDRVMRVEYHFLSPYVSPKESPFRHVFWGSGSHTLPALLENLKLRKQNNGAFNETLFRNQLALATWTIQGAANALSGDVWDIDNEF
Test: BLI (Octet) binning; hTFR1-His captured on HIS1K; ratio = binding of analyte 2 / binding of analyte 1; competitor (analyte 1, bound first): 23B8
attribute_measured: binding ratio

- 23B8 (antibody, V domains shown, Heavy-chain antibody without light chain; also called anti-TFR1 antibody 23B8) VH: QVTLKESGGGLVKPGGSLRLSCAASGFPFSNAWMNWVRQAPGKGLEWVGHIKSKTDGGTTDYAAPVKGRFTISRDDSKNMVFLQMNSLKTEDTAVYYCTTDRAYCGGDCSHYYYHDLDVWGQGTTVTVSS: 0.1
- 24C9 (antibody, human IgG1, V domains shown, Heavy-chain antibody without light chain; also called anti-TFR1 antibody 24C9) VH: EVQLVQSGGGVVQPGRSLRLSCAASGFTLSSYGMYWVRQAPGKGREWVAFIRFDESKKYYADSVKGRFTISRDNSKNTLYLQMNSLRAEDTAVYYCARDGEGGYCTNGVCHGLDVWGQGTTVTVSS: 0.6

Which binding ratio value is on record for JR141-N (antibody, V domains shown, also called positive control; JR141 VH and VL on human IgG1 N297A) VH: EVQLVQSGAEVKKPGESLKISCKGSGYSFTNYWLGWVRQMPGKGLEWMGDIYPGGDYPTYSEKFKVQVTISADKSISTAYLQWSSLKASDTAMYYCARSGNYDEVAYWGQGTLVTVSS VL: DIVMTQTPLSLSVTPGQPASISCRSSQSLVHSNGNTYLHWYLQKPGQSPQLLIYKVSNRFSGVPDRFSGSGSGTDFTLKISRVEAEDVGVYYCSQSTHVPWTFGQGTKVEIK ?
0.7

Value source: patent US20260078197A1
